Values compiled from patent US20250313563A1.

List of pIC50 values.
Molecular target: GSK3α (GST-full length GSK3α) (Homo sapiens (Human), UniProt P49840)
Sequence (P49840 whole entry): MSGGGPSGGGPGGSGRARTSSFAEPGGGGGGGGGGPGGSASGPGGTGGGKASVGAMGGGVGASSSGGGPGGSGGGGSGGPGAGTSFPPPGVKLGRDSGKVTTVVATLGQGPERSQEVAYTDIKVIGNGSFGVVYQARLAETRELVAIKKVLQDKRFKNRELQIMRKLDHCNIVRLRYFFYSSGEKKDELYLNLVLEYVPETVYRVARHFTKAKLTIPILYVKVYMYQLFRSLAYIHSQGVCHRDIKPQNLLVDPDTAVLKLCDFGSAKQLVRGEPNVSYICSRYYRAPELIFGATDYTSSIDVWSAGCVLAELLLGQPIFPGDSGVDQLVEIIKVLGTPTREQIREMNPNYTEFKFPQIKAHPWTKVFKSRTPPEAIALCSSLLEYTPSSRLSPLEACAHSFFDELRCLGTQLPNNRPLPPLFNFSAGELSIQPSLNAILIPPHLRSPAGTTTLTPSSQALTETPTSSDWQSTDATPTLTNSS
Assay: GSK3α TR-FRET kinase assay
Assay type: biochemical
Details: 1 nM GSK3α, 4 μM ATP, 30 minute preincubation; geometric mean; read-out: GSK3-A TR-FRET BIOCHEMICAL (TR-FRET); GMean; IC50
Experimental: TR-FRET Assay: The assay was performed in a white, 384 well, low volume, flat bottom plate (Grenier). After a 30 minute preincubation in assay buffer with the indicated concentration of compound, the kinase activity was initiated by the addition of the substrates. […] After 60 min at room temperature the plate was read on Envision plate reader using Ex: 340 nm, Em: 615 nm and […]. The normalized 665/615 Signal ratio versus log compound concentration was analyzed by XLFIT to yield IC50 values.
pIC50: −log10 of the molar value.

Illustrative cases are given below, each with its answer.
compound	pIC50
CCC1(c2cccc(S(=O)(=O)C3CC3)c2)C2=C(CC(C)(C)N(C)C2=O)Nc2n[nH]cc21 (stereo not shown) [Compound 948303]	≥ 7.00
CCC1(c2cccc(Br)c2)C2=C(CC(C(F)(F)F)CC2=O)Nc2n[nH]cc21 (stereo not shown) [Compound 819565]	6.00 to 7.00
CCC1(c2cccc(-c3cc(OC)nc4ccccc34)c2)C2=C(CC(C)(C)NC2=O)Nc2n[nH]cc21 (stereo not shown) [Compound 949116]	< 5.30
CCC1(c2cccc(C)c2)C2=C(CC(C)(C)CC2=O)Nc2n[nH]cc21 (stereo not shown) [Compound 785738]	≥ 7.00
CC[C@@]1(c2cccc(-c3ccnc4cc(Cl)c(C)cc34)c2)C2=C(CC(C)(C)NC2=O)Nc2n[nH]cc21 [Compound 948645]	6.00 to 7.00

In: Please look up its pIC50: CCC1(c2cccc(-c3ccnc4cc(OC)ccc34)c2)C2=C(CC(C)(C)NC2=O)Nc2n[nH]cc21 (stereo not shown) [Compound 948649]
Out: < 5.30

In: Please look up its pIC50: CCC1(c2cccc(C(F)F)c2)C2=C(CC(C)(C)CC2=O)Nc2n[nH]cc21 (stereo not shown) [Compound 819564]
Out: ≥ 7.00

----------
List of IC50 values.
target: UniProt:P49841; assay: GSK3b TR-FRET kinase assay; format: biochemical; settings: 1 nM GSK3b, 2 μM ATP, 30 minute preincubation; geometric mean; read-out: GSK3-B TR-FRET BIOCHEMICAL (TR-FRET); GMean; IC50
Sequence (P49841 whole entry): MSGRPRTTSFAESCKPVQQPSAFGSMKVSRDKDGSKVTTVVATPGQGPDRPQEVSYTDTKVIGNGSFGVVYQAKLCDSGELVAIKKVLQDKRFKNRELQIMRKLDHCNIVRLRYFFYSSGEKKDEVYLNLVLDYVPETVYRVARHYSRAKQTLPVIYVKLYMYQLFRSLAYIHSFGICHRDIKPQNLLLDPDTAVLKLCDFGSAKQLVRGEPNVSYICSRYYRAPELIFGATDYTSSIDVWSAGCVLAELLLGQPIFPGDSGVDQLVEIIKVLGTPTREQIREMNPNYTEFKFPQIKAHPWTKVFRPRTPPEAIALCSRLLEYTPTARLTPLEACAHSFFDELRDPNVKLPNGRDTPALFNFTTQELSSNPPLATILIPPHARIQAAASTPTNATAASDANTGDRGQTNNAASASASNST

Illustrative cases are given below, each with its answer.
compound	IC50
CCC1(c2cccc(-c3ccnc(C)c3)c2)C2=C(CC(C)(C)NC2=O)Nc2n[nH]c(C)c21 (stereo not shown) [Compound 948414]	> 5000 nM
CCC1(c2cccc(Br)c2)C2=C(CC(C)(C)CC2=O)Nc2n[nH]c(C(F)(F)F)c21 (stereo not shown) [Compound 810365]	> 1670 nM
CCC1(c2cccc(N(C)c3ccncc3)c2)C2=C(CC(C)(C)CC2=O)Nc2n[nH]cc21 (stereo not shown) [Compound 853910]	1000 to 5000 nM
CCC1(c2cccc(-c3cnn(C)c3)c2)C2=C(CC(C)(C)NC2=O)Nc2n[nH]c(C(F)F)c21 (stereo not shown)	≤ 100 nM

In: Please look up its IC50: CC[C@]1(c2cccc(-c3ccncc3C)c2)C2=C(CC3(CCC3)NC2=O)Nc2n[nH]cc21
Out: ≤ 100 nM

In: Please look up its IC50: CCC1(c2cccc(C(F)F)c2)C2=C(CC(C)(C)NC2=O)Nc2n[nH]cc21 (stereo not shown)
Out: 100 to 1000 nM

In: Please look up its IC50: CC[C@]1(c2cccc(S(=O)(=O)C3CC3)c2)C2=C(CC(C)(C)N(C)C2=O)Nc2n[nH]cc21
Out: ≤ 100 nM
